From: patent EP1205473A1

Listing: log10(IC50) of selected compounds
Biological target: vesamicol receptors (Rattus norvegicus, UniProt Q62666)
Sequence (Q62666 1-530): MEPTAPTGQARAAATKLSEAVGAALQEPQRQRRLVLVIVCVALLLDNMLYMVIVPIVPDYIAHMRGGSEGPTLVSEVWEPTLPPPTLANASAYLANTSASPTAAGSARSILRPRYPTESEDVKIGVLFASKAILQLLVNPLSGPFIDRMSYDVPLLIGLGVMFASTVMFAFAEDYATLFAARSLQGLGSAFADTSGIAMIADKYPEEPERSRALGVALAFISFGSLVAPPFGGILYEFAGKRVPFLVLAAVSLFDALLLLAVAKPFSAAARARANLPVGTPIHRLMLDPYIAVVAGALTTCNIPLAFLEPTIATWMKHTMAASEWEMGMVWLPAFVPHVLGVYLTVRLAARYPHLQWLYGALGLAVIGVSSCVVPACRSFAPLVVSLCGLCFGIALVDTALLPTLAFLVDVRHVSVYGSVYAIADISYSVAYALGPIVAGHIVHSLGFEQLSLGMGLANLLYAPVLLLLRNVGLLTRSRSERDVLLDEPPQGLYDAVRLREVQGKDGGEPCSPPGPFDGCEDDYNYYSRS
Test: Inhibition experiment: inhibition of binding of radioactive-iodine-labeled DRC140 to P2 fractions
Set-up: Synaptic vesicles were extracted and separated from the brain of a rat; from tissue; host or cells: rat brain without cerebellum: P2, crude synaptic vesicles, purified synaptic vesicles
Conditions: inhibitive concentration at 50% (IC50), Receptor Vesamicol
endpoint: log10(IC50) (log10 of the value in nM)

{"compound": "Nc1ccccc1N1CCN([C@@H]2Cc3c(I)cccc3C[C@H]2O)CC1 (racemic) [DRF402]", "assayed target": "vesamicol receptors (Rattus norvegicus, UniProt Q62666)", "log10(IC50)": -0.20}
{"compound": "O[C@@H]1Cc2cc(I)ccc2C[C@H]1N1CCN(c2ccccc2)CC1 (racemic) [DRG449]", "assayed target": "vesamicol receptors (Rattus norvegicus, UniProt Q62666)", "log10(IC50)": -0.26}
{"compound": "Cc1cccc(N2CCN([C@@H]3Cc4c(I)cccc4C[C@H]3O)CC2)c1 (racemic) [DRF380]", "assayed target": "vesamicol receptors (Rattus norvegicus, UniProt Q62666)", "log10(IC50)": 0.39}
{"compound": "Cc1cccc(C)c1N1CCN([C@@H]2Cc3c(I)cccc3C[C@H]2O)CC1 (racemic) [DRF382]", "assayed target": "vesamicol receptors (Rattus norvegicus, UniProt Q62666)", "log10(IC50)": 0.84}
{"compound": "CCc1ccccc1N1CCN([C@@H]2Cc3c(I)cccc3C[C@H]2O)CC1 (racemic) [DRE353]", "assayed target": "vesamicol receptors (Rattus norvegicus, UniProt Q62666)", "log10(IC50)": 0.04}
{"compound": "Cc1ccc(C)c(N2CCN([C@@H]3Cc4c(I)cccc4C[C@H]3O)CC2)c1 (single isomer, unassigned) [DRE350]", "assayed target": "vesamicol receptors (Rattus norvegicus, UniProt Q62666)", "log10(IC50)": -0.08}
{"compound": "Cc1ccc(C)c(N2CCN([C@@H]3Cc4c(I)cccc4C[C@H]3O)CC2)c1 (single isomer, unassigned) [DRE351]", "assayed target": "vesamicol receptors (Rattus norvegicus, UniProt Q62666)", "log10(IC50)": 1.06}
{"compound": "Cc1ccccc1N1CCN([C@@H]2Cc3c(I)cccc3C[C@H]2O)CC1 (racemic) [DRE334]", "assayed target": "vesamicol receptors (Rattus norvegicus, UniProt Q62666)", "log10(IC50)": -0.13}

====

Molecular target: serotonin 5-HT2A receptors (Rattus norvegicus, UniProt P14842)
Sequence (P14842 whole entry): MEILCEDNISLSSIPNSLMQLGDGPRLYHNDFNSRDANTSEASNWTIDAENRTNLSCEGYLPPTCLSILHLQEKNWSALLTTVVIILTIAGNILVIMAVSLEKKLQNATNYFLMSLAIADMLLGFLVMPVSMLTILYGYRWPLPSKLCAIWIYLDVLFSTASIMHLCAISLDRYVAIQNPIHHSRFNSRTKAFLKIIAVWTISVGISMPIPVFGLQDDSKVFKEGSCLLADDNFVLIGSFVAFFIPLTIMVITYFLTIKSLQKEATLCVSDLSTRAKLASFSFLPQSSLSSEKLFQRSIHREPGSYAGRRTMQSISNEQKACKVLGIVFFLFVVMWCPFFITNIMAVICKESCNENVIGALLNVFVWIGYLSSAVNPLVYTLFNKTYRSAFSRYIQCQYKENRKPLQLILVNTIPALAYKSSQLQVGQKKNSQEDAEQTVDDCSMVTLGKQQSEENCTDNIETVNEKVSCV
Assay: Receptor binding test: inhibition of tritium-labeled ketanserin binding to brain homogenate
Design: species or system Male Wistar rats
Settings: read-out: inhibitive concentration at 50% (IC50), Receptor 5-HT2A

{"compound": "O[C@@H]1Cc2cccc(I)c2C[C@H]1N1CCC(c2ccccc2)CC1 [(-)-IBVM, 5-iodobenzovesamicol, reference compound]", "assayed target": "serotonin 5-HT2A receptors (Rattus norvegicus, UniProt P14842)", "IC50": "> 5 µM"}

====

Biological target: vesamicol receptors (Rattus norvegicus, UniProt Q62666)
Sequence (Q62666 1-530): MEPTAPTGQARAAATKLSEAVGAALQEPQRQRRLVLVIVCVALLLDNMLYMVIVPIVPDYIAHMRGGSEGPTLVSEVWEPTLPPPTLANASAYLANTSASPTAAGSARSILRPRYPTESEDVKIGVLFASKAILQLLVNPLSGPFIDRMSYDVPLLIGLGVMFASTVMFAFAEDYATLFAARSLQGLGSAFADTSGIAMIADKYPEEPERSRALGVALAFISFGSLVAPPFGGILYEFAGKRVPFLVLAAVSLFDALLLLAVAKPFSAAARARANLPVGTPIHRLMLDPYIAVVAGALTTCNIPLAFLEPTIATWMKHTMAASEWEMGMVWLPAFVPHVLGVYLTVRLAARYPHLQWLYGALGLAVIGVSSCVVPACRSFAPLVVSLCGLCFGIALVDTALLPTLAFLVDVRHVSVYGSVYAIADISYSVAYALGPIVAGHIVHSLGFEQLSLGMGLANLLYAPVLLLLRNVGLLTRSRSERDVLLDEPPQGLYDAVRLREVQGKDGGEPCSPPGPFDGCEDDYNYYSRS
Test: Receptor binding test: inhibition of I-125 labeled 5-iodobenzo vesamicol binding to brain homogenate
Parameters: from tissue; host or cells: rat brain without cerebellum, P2 fraction; species or system Male Wistar rats
Conditions: Inhibitive concentration at 50% (IC50), Vesamicol receptor, Table 5; incubated three hours at 37°C; no unit printed in table (b19 gives nM for DRC140)
Procedure: Properties relating to binding of the vesamicol piperazine derivatives of the present invention to various receptors were examined as follows. Specifically, ligands which combine with each receptor were incubated together with homogenates prepared as follows. To measure affinity of vesamicol receptors, I-125 labeled 5-iodobenzo vesamicol (synthesized and labeled according to Jung et al., J. Med. Chem. 33, 2065-2068, 1990) was added to a brain homogenate prepared as follows. […]
endpoint: IC50

{"molecule": "O[C@@H]1Cc2cccc(I)c2C[C@H]1N1CCN(c2ccccn2)CC1 (racemic)", "endpoint": "IC50", "result": "38.4 nM"}
{"molecule": "COc1ccc(C)c(N2CCN([C@@H]3Cc4c(I)cccc4C[C@H]3O)CC2)c1 (racemic)", "endpoint": "IC50", "result": "5.09 nM"}
{"molecule": "Cc1cccc(N2CCN([C@@H]3Cc4c(I)cccc4C[C@H]3O)CC2)c1 (racemic)", "endpoint": "IC50", "result": "3.69 nM"}
{"molecule": "Cc1ccc(C)c(N2CCN([C@@H]3Cc4cc(I)ccc4C[C@H]3O)CC2)c1 (racemic)", "endpoint": "IC50", "result": "2.9 nM"}
{"molecule": "Cc1cccc(N2CCN([C@@H]3Cc4c(I)cccc4C[C@H]3O)CC2)c1C (racemic)", "endpoint": "IC50", "result": "1.41 nM"}
{"molecule": "Cc1ccccc1N1CCN([C@@H]2Cc3c(I)cccc3C[C@H]2O)CC1 (racemic) [DRE334]", "endpoint": "IC50", "result": "0.72 nM"}
{"molecule": "Cc1ccc(C)c(N2CCN([C@@H]3Cc4c(I)cccc4C[C@H]3O)CC2)c1 (single isomer, unassigned) [DRE350]", "endpoint": "IC50", "result": "0.58 nM"}
{"molecule": "Cc1ccc(N2CCN([C@@H]3Cc4c(I)cccc4C[C@H]3O)CC2)cc1 (racemic)", "endpoint": "IC50", "result": "13.9 nM"}
{"molecule": "Cc1ccccc1N1CCN([C@@H]2Cc3c(I)cccc3C[C@H]2O)CC1 (single isomer, unassigned) [DRE342]", "endpoint": "IC50", "result": "0.23 nM"}
{"molecule": "Cc1ccccc1N1CCN([C@@H]2Cc3cccc(I)c3C[C@H]2O)CC1 (racemic)", "endpoint": "IC50", "result": "2.8 nM"}
{"molecule": "Cc1ccc(C)c(N2CCN([C@@H]3Cc4ccc(I)cc4C[C@H]3O)CC2)c1 (racemic)", "endpoint": "IC50", "result": "1.14 nM"}
{"molecule": "Cc1ccc(I)cc1N1CCN([C@@H]2Cc3c(N)cccc3C[C@H]2O)CC1 (racemic)", "endpoint": "IC50", "result": "8.74 nM"}
{"molecule": "Cc1ccc(C)c(N2CCN([C@@H]3Cc4c(I)cccc4C[C@H]3O)CC2)c1 (racemic) [DRE348]", "endpoint": "IC50", "result": "0.78 nM"}
{"molecule": "Cc1ccc(C)c(N2CCN([C@@H]3Cc4c(I)cccc4C[C@H]3O)CC2)c1 (single isomer, unassigned) [DRE351]", "endpoint": "IC50", "result": "7.11 nM"}
{"molecule": "CCc1ccccc1N1CCN([C@@H]2Cc3c(I)cccc3C[C@H]2O)CC1 (racemic)", "endpoint": "IC50", "result": "8.74 nM"}
{"molecule": "Cc1cccc(C)c1N1CCN([C@@H]2Cc3c(I)cccc3C[C@H]2O)CC1 (racemic)", "endpoint": "IC50", "result": "5.04 nM"}
